meta.source: the METLIN SMRT retention time set (Domingo-Almenara et al. 2019)

Collected RP-LC retention time values appear next to each entry.
Assay: gradient 5% acetonitrile 3 min, to 50% in 2 min, to 85% in 15 min, held 3 min, 100 µL/min
Settings: column: Zorbax Extend-C18 2.1 x 50 mm; eluents: water / acetonitrile, 0.1% formic acid
Provide only the numeric value, understood in s.

compound	RP-LC retention time / s
CC(C)c1nnc(-c2ccc(S(=O)(=O)N3CCN(C(C)C)CC3)o2)o1	608
CCc1ccc(-c2ccc(=O)n(CCc3nc(-c4ccc(C)cc4)no3)n2)cc1	1180
CCc1ccccc1NC(=O)C(=O)c1cn(CC(=O)N2CCCC2)c2ccccc12	644

IN: // query RP-LC retention time value for entry O=C(Nc1nccs1)c1cc(-c2ccncc2)nc2ccccc12
OUT: 614

IN: // query RP-LC retention time value for entry COc1ccc(-n2nnc(C(=O)O)c2-c2ccncc2)cc1
OUT: 592

IN: // query RP-LC retention time value for entry COc1ccccc1C(=O)Nc1cnc(-c2cccc(Cl)c2)nc1
OUT: 1180

IN: // query RP-LC retention time value for entry CC1CN2C=NC(N3CCN(C(=O)Nc4ccc(F)cc4F)CC3)=CC2=N1 (stereo not given)
OUT: 664

IN: // query RP-LC retention time value for entry Cc1occc1C(=O)N1CCC2(CC1)CC(C)(O)CCO2 (stereo not given)
OUT: 645

IN: // query RP-LC retention time value for entry Cc1nn(-c2nc3ccccc3[nH]2)c2c1C(=O)CC(c1cccs1)C2 (stereo not given)
OUT: 967

IN: // query RP-LC retention time value for entry O=C(c1cccs1)N1CCN(c2ccc3nnc(-c4ccco4)n3n2)CC1
OUT: 631

IN: // query RP-LC retention time value for entry CCC[C@H](Nc1nc(-c2ccc(NC(=O)NCC)c(OC)c2)ncc1C)c1cccnc1
OUT: 666

====

Collected RP-LC retention time values appear next to each entry.
Test: gradient 5% acetonitrile 3 min, to 50% in 2 min, to 85% in 15 min, held 3 min, 100 µL/min
Conditions: column: Zorbax Extend-C18 2.1 x 50 mm; eluents: water / acetonitrile, 0.1% formic acid
Provide only the numeric value, understood in s.

compound	RP-LC retention time, s
O=C(Cc1csc(-c2ccccc2F)n1)NCCc1c[nH]c2ccc(F)cc12	908
O=Cc1cn(Cc2ccc(Cl)cc2)c2ccccc12	968
Cc1ccc(CS(=O)(=O)N2CCc3nc(-c4ccc(Cl)cc4)ncc3C2)cc1	1210
CCCN1C(=O)COc2ccc(-c3noc(/C=C/c4ccccc4OC)n3)cc21	1270
CCN1C(=O)C2(CCN(S(=O)(=O)Cc3ccccc3)CC2)c2ccccc21	976

IN: // query RP-LC retention time value for entry O=C(Cn1cccc1-c1nc(-c2ccc3c(c2)OCO3)no1)Nc1cc(F)cc(F)c1
OUT: 1060

IN: // query RP-LC retention time value for entry Cc1nc(-c2csc(S(=O)(=O)N3CCC(C(=O)NCCc4ccccc4)CC3)c2)no1
OUT: 1060

IN: // query RP-LC retention time value for entry COCCC(=O)N(C)Cc1cccnc1Oc1ccccc1
OUT: 1060

IN: // query RP-LC retention time value for entry NS(=O)(=O)c1ccc(CNC(=O)C2CN(C(=O)c3ccc(F)c(F)c3)C2)cc1
OUT: 631

IN: // query RP-LC retention time value for entry Cc1ccc2c(Nc3ccc(S(N)(=O)=O)cc3)c(C(=O)OC(C)C)cnc2n1
OUT: 840

IN: // query RP-LC retention time value for entry CCOC(=O)C(=CNc1ccccc1Cl)C(=O)OCC
OUT: 1130

IN: // query RP-LC retention time value for entry CCCn1c(=O)c2cc(C(=O)NCc3ccc(N4CCOCC4)cc3)nn2c2ccccc21
OUT: 842

IN: // query RP-LC retention time value for entry c1cc2c(cc1-c1nnc(C3CCC3)o1)OCO2
OUT: 865

IN: // query RP-LC retention time value for entry CCSc1nc2ccc(NS(=O)(=O)c3ccc(C)cc3C)cc2s1
OUT: 1110

====

Collected RP-LC retention time values appear next to each entry.
Test: gradient 5% acetonitrile 3 min, to 50% in 2 min, to 85% in 15 min, held 3 min, 100 µL/min
Conditions: column: Zorbax Extend-C18 2.1 x 50 mm; eluents: water / acetonitrile, 0.1% formic acid
Provide only the numeric value, understood in s.

compound	RP-LC retention time [s]
COCCCNC(=O)Cn1nc(C)c2nn(-c3ccc(Cl)cc3)c(-n3cccc3)c2c1=O	887
COc1ccccc1NC(=O)Cn1c(C)cc(-c2nnc(-c3ccc(F)cc3)o2)c1C	998
CC(=O)N1CCC(C(=O)N2CCCCCCN(C)C(=O)[C@@H]3CCC[C@@H]32)CC1	658
Cc1ccc2[nH]cc(CCNC(=O)C3CCN(S(=O)(=O)c4ccc5c(ccn5C)c4)CC3)c2c1	933
COc1ccc([C@@H]2CC(=O)c3c(O)cc(O[C@@H]4O[C@H](CO)[C@@H](O)[C@H](O)[C@H]4OC4O[C@@H](C)[C@H](O)[C@@H](O)[C@H]4O)cc3O2)cc1O (some centres undefined)	652
O=C1CC(NC(=O)c2cc(C3CC3)on2)CN1 (centres undefined)	563

IN: // query RP-LC retention time value for entry CN(C)c1ccc(-c2nc3cnccn3c2Nc2ccc(F)cc2)cc1
OUT: 787

IN: // query RP-LC retention time value for entry COc1ccc(C2(C(=O)N3CCC([C@H]4[C@@H](OC)C(=O)N4C(C)C)CC3)CC2)cc1
OUT: 776

IN: // query RP-LC retention time value for entry COc1cc(NC(=O)NCCc2nc3cccnc3n2-c2ccccc2)cc(OC)c1OC
OUT: 682

====

Collected RP-LC retention time values appear next to each entry.
Assay: gradient 5% acetonitrile 3 min, to 50% in 2 min, to 85% in 15 min, held 3 min, 100 µL/min
Conditions: column: Zorbax Extend-C18 2.1 x 50 mm; eluents: water / acetonitrile, 0.1% formic acid
Provide only the numeric value, understood in s.

Some entries whose results are on file:
compound	measure	readoutNumber
CC(C)N1CCn2cc(S(=O)(=O)Nc3cc(F)cc(F)c3)cc2C1=O	RP-LC retention time	794
O=C(CCC1CCCN(S(=O)(=O)c2ccccc2)C1)NCc1ccc(Cl)cc1 (stereo not given)	RP-LC retention time	979
CCOc1ccccc1-c1nc(CN(c2ccccc2OC)S(=O)(=O)c2ccccc2C)c(C)o1	RP-LC retention time	1250
O=C(NCc1cccc(Cl)c1)C1CCN(c2cnc3nccnc3c2)CC1	RP-LC retention time	697

Next compound, RP-LC retention time to be filled in.
IN: // query RP-LC retention time value for entry O=C(NCCN1CCN(c2ccc(Cl)cc2)CC1)C(=O)Nc1cc(F)ccc1F
OUT: 613

====

Test: gradient 5% acetonitrile 3 min, to 50% in 2 min, to 85% in 15 min, held 3 min, 100 µL/min
Conditions: column: Zorbax Extend-C18 2.1 x 50 mm; eluents: water / acetonitrile, 0.1% formic acid
Collected RP-LC retention time values appear next to each entry.
Provide only the numeric value, understood in s.

compound	unitText	RP-LC retention time
CCNC(=O)c1nc(C(=O)NCc2ccccc2F)cs1	s	765

IN: // query RP-LC retention time value for entry O=C(CSc1ccc(F)cc1)NCC1(CO)CC1
OUT: 629

IN: // query RP-LC retention time value for entry CN(C)c1ccc(C(CNS(C)(=O)=O)N2CCc3ccccc3C2)cc1 (stereo not given)
OUT: 573

IN: // query RP-LC retention time value for entry Cc1cccc(NC(=O)N2c3ccccc3NC3=C(C(=O)CCC3)C2c2ccco2)c1C (stereo not given)
OUT: 813

IN: // query RP-LC retention time value for entry COc1ccc(CNC(=O)C2(C)CCCN(S(=O)(=O)c3ccc(C)cc3)C2)cc1 (stereo not given)
OUT: 946

====

Assay: gradient 5% acetonitrile 3 min, to 50% in 2 min, to 85% in 15 min, held 3 min, 100 µL/min
Conditions: column: Zorbax Extend-C18 2.1 x 50 mm; eluents: water / acetonitrile, 0.1% formic acid
Decide by RP-LC retention time: equal to or exceeding 800 s means Met, less means Not met.

For orientation, consider the following solved cases.
compound	answerLabel
COc1ccc(C2C(C(=O)N3CCOCC3)=C(C)NC3=C2C(=O)CC(C)(C)C3)c(OC)c1 (stereo not given)	Met
CCN1CCN(C(=O)c2ccc(-c3nnc4ccc(NC(=O)C5CC5)cn34)cc2)CC1	Not met

IN: Check if RP-LC retention time >= 800 s (inclusive). Item: CNC(=O)N1CCC(C2CCN(C(=O)CSC)C2)CC1 (stereo not given)
OUT: Not met

IN: Check if RP-LC retention time >= 800 s (inclusive). Item: CS(=O)(=O)N1CCC(C(=O)Nc2nnc(-c3ccc4c(c3)OCCO4)o2)CC1
OUT: Not met

IN: Check if RP-LC retention time >= 800 s (inclusive). Item: O=C(Nc1ccc(OCc2nnc(-c3ccc(Cl)cc3)o2)cc1)c1ccccn1
OUT: Met

IN: Check if RP-LC retention time >= 800 s (inclusive). Item: Cc1nc(-c2ccc(-c3noc(COc4ccc(F)cc4)n3)cc2)cs1
OUT: Met

IN: Check if RP-LC retention time >= 800 s (inclusive). Item: CC(C)N1C(=O)Cc2ccccc2C1C(=O)NCc1cccs1 (stereo not given)
OUT: Not met

IN: Check if RP-LC retention time >= 800 s (inclusive). Item: O=C(Nc1ccccc1Br)N1CCc2nc(-c3ccc(Cl)cc3)ncc2C1
OUT: Met

IN: Check if RP-LC retention time >= 800 s (inclusive). Item: CN(CC1CCOCC1)S(=O)(=O)Cc1ccccc1Cl
OUT: Met

IN: Check if RP-LC retention time >= 800 s (inclusive). Item: COc1cnc(NS(=O)(=O)c2ccc(N)cc2)nc1
OUT: Not met

IN: Check if RP-LC retention time >= 800 s (inclusive). Item: O=C(Cc1cccs1)N1CCc2c([nH]c3ccccc23)C1c1ccccc1 (stereo not given)
OUT: Met
